- study-target: PAR2 (HT-29 cells, trypsin activation) (Homo sapiens, UniProt P55085)
- Construct: host or cells: HT-29 cells
- Sequence (P55085 26-397): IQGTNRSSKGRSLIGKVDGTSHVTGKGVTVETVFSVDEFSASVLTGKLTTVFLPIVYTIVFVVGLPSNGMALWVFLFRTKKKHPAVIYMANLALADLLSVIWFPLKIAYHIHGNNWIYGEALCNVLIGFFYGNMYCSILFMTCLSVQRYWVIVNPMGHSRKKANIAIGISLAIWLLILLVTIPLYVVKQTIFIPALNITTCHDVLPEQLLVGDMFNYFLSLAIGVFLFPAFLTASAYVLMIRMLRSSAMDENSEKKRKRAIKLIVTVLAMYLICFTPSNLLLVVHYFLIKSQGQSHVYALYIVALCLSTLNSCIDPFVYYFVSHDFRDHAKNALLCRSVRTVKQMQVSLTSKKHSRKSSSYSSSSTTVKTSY
- assay: Ca FLIPR TETRA assay, ANTAGONIST mode, stimulation with 3.1 U/mL trypsin
- Format: cell-based
- condition-summary: HT-29 cells, stimulation with 3.1 U/mL trypsin
pIC50: −log10 of the molar value.
Where pIC50 equals or exceeds 8, the correct label is yes; where it does not, the label is no.

Some entries whose results are on file:
[[record]]
compound = "CC[C@@H](O)C(=O)N1CCN(C(=O)c2cn3nc(-c4ccc(F)cc4)cc(C(C)C)c3n2)C[C@@H]1C"
answer_label = "no"

[[record]]
compound = "CC(C)c1cc(-c2ccc(F)cc2)nn2cc(C(=O)N3CCNC(=O)C3(C)C)nc12"
answer_label = "no"

[[record]]
compound = "CC(C)c1cc(-c2ccc(F)cc2)nn2cc(C(=O)N3CCN(C(=O)C(O)c4ccc(F)cc4)[C@@H](C)C3)nc12 (some centres unmarked)"
answer_label = "yes"


## Input Form field: pIC50 at least 8? Entry: "C[C@H]1CN(C(=O)c2cn3nc(-c4ccc(F)cc4)cc(C4CC4)c3n2)CCN1C(=O)[C@H](O)CC(C)(C)C"
## Output yes

## Input Form field: pIC50 at least 8? Entry: "Cc1cc(-c2ccc(F)cc2)nn2cc(C(=O)N3CCN(C(=O)OCc4ccccc4)[C@@H](C)C3)nc12"
## Output no

## Input Form field: pIC50 at least 8? Entry: "CC(C)c1cc(-c2ccc(F)cc2)nn2cc(C(=O)N3CCN(C(=O)Cc4ccsc4)[C@@H](C)C3)nc12"
## Output yes

## Input Form field: pIC50 at least 8? Entry: CC(C)c1cc(-c2ccc(F)cc2)nn2cc(C(=O)N3CCN(C(=O)C(O)c4ccccc4)[C@@H](C)C3)nc12 (some centres unmarked)
## Output yes

---

Exercise: state measured IC50 for each of the compounds provided.
- study-target: PAR2 (HT-29 cells, SLIGKV activation) (Homo sapiens, UniProt P55085)
- Construct: host or cells: HT-29 cells
- Sequence (P55085 26-397): as above
- assay: Ca FLIPR TETRA assay, ANTAGONIST mode, stimulation with 8 μM SLIGKV
- Type: cell-based
- condition-summary: HT-29 cells, antagonist mode, stimulation with 8 μM SLIGKV
One number for each entry, in nM.

Observe how each entry below is paired with its result.
[[record]]
compound = "CC(C)c1cc(-c2ccc(C(F)(F)F)cc2)nn2cc(C(=O)N3CCNC(=O)C3(C)C)nc12 [Compound I-241]"
measurement = 1.7

[[record]]
compound = "CC(C)(C)c1cc(-c2ccc(Cl)c(F)c2)nn2cc(C(=O)N3CCN(C(=O)c4ncccn4)CC3(C)C)nc12 [Compound I-456]"
measurement = 0.5

[[record]]
compound = "CC(C)c1cc(-c2ccc(Cl)c(F)c2)nn2cc(C(=O)N3CCNC(=O)C3(C)C)nc12 [Compound I-354]"
measurement = 1.2


For each listed entry, give its IC50.
1. Cc1cc(-c2cc(C(C)C)c3nc(C(=O)N4CCN(C(=O)c5ccncn5)CC4(C)C)cn3n2)ccc1F [Compound I-262]
2. CC(C)c1cc(-c2ccc(Cl)cc2)nn2cc(C(=O)N3CCN(C(=O)[C@H]4C[C@@H](C(=O)O)C4)CC3(C)C)nc12 [Compound I-553]
3. C[C@H]1CN(c2cc(-c3ccc(F)cc3)nn3cc(C(=O)N4CCNC(=O)C4(C)C)nc23)C[C@H](C)O1 [Compound I-183]
4. Cc1nc(N2CCN(C(=O)c3cn4nc(-c5ccc(F)cc5)cc(C(C)(C)C)c4n3)C(C)(C)C2=O)c[nH]1 [Compound I-367]

## Output
1: 9.2; 2: 24; 3: 15; 4: 2.6

Every entry's value here was drawn from patent US20190119282A1.
